TEST: Selectivity index, ratio of inhibition of human recombinant COX-2 at 100 uM to inhibition of bovine COX-1 at 100 uM
RECORDED_ENDPOINT: Selectivity Index

[[record]]
structure_smiles_string = "CC(=O)Nc1ccc(-n2c(-c3ccc(Cl)cc3)nc3ccccc32)cc1"
measured_number = 0.51


I = Nc1ccc(-n2c(-c3ccc(Br)cc3)nc3ccccc32)cc1
II = N#Cc1ccc(-c2nc3ccccc3n2-c2ccc([N+](=O)[O-])cc2)cc1
In: Field: entry with larger Selectivity Index (options I / II ). In your reply, give the label of the chosen option.
Out: II
(II: 1.63, I: 0.11)

I = CC(=O)Nc1ccc(-n2c(-c3ccc(Br)cc3)nc3ccccc32)cc1
II = O=[N+]([O-])c1ccc(-n2c(-c3ccc(Cl)cc3)nc3ccccc32)cc1
III = O=[N+]([O-])c1ccc(-n2c(-c3ccc(Br)cc3)nc3ccccc32)cc1
In: Sort the compounds on Selectivity Index; start with the lowest figure. Could you list the labels in the order requested?
Out: I, II, III

====

TEST: Selectivity index, ratio of inhibition of human recombinant COX-2 at 100 uM to inhibition of bovine COX-1 at 100 uM
RECORDED_ENDPOINT: Selectivity Index

[[record]]
structure_smiles_string = "O=C(O)c1ccc(-c2nc3ccccc3n2-c2ccc([N+](=O)[O-])cc2)cc1"
measured_number = 1.06


A = Cc1ccc(-c2ncc(Cl)cc2-c2ccc(S(C)(=O)=O)cc2)cn1
B = Nc1ccc(-c2nc3ccccc3n2-c2ccc(N)cc2)cc1
In: Please tell me which of the two, A or B , has the higher reported Selectivity Index value. Please respond with the label that marks your chosen entry.
Out: A
(A: 2.68, B: 1.55)

====

ASSAYED_SYSTEM: Prostaglandin G/H synthase 1 (Bos taurus) (UniProt O62664)
Sequence (O62664 whole entry): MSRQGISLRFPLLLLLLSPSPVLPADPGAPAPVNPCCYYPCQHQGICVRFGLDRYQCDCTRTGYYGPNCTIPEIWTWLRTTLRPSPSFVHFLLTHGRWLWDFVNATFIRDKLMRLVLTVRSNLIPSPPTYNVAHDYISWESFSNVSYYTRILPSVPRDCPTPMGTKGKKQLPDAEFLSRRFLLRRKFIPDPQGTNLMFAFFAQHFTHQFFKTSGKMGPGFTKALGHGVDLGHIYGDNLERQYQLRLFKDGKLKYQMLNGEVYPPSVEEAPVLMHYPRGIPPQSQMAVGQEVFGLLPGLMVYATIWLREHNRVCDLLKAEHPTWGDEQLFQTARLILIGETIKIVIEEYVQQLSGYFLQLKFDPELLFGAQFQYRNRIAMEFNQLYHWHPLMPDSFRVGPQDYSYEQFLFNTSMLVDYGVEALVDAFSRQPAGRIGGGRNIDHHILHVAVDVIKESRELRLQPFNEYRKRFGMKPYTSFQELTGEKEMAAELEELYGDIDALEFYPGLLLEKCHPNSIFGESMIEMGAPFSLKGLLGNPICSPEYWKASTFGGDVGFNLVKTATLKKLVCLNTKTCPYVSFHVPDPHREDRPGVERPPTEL
TEST: Inhibition of bovine COX1 at 100 uM using arachidonic acid as substrate preincubated for 5 mins followed by substrate addition and measured after 5 mins by […]-based fluorescence assay relative to control
RECORDED_ENDPOINT: inhibition (%)

Use the examples below as a reference point.
[[record]]
molecule = "O=C(O)c1ccc(-c2nc3ccccc3n2-c2ccc([N+](=O)[O-])cc2)cc1"
measured_number = 31

[[record]]
molecule = "CC(C)Cc1ccc(C(C)C(=O)O)cc1 (stereo not given)"
measured_number = 56.6


P = Nc1ccc(-n2c(-c3ccc(Cl)cc3)nc3ccccc32)cc1
Q = Cc1ccc(-c2ncc(Cl)cc2-c2ccc(S(C)(=O)=O)cc2)cn1
R = Nc1ccc(-n2c(-c3ccc(Br)cc3)nc3ccccc32)cc1
In: Your job: order these 3 records by inhibition, ascending. Return value: ordered labels per request.
Out: Q, P, R

====

ASSAYED_SYSTEM: Nitric oxide synthase, inducible (Mus musculus)
Sequence (whole entry): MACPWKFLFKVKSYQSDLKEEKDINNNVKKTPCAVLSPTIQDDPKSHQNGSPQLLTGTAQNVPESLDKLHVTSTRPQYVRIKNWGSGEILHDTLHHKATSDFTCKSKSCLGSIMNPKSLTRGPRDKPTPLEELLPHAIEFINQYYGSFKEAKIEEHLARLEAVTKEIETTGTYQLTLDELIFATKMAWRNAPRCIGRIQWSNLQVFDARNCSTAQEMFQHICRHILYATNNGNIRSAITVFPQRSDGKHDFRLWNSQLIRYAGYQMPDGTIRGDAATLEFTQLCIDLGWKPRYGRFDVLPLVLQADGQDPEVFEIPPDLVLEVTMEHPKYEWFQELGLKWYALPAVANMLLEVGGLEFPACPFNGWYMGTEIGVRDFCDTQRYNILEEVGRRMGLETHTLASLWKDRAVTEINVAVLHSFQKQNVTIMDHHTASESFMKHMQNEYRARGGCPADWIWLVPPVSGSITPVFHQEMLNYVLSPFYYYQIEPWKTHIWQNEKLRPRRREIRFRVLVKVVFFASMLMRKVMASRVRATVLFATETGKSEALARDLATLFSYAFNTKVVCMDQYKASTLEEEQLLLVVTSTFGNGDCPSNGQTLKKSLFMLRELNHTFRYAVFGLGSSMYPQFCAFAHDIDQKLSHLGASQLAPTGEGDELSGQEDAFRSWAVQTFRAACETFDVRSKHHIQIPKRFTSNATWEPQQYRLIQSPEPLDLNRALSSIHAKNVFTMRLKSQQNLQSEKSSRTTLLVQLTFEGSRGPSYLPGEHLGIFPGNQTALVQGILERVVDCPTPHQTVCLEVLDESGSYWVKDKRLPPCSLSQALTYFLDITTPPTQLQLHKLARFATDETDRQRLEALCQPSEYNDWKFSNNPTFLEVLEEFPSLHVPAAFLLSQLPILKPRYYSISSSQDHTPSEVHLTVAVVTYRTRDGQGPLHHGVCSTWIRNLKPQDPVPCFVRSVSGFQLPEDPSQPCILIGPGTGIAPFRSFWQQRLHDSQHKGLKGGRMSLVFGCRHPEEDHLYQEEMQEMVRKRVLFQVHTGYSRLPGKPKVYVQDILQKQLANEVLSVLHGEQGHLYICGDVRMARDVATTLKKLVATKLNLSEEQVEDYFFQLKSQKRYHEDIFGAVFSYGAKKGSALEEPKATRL
TEST: Inhibition of iNOS in mouse macrophages assessed as reduction in LPS-induced nitric oxide production at 50 uM incubated for overnight by griess assay relative to control
RECORDED_ENDPOINT: inhibition (%)

[[record]]
structure_smiles_string = "Nc1ccc(-n2c(-c3ccc(Cl)cc3)nc3ccccc32)cc1"
recorded_endpoint = "inhibition"
unit_tag = "%"
measured_number = 24.9


A = N#Cc1ccc(-c2nc3ccccc3n2-c2ccc([N+](=O)[O-])cc2)cc1
B = CC(=O)Nc1ccc(-c2nc3ccccc3n2-c2ccc(NC(C)=O)cc2)cc1
C = O=[N+]([O-])c1ccc(-n2c(-c3ccccc3)nc3ccccc32)cc1
In: hey, can you rank those compounds up there by inhibition? biggest number first please List the labels, following the order given in the request.
Out: C, A, B
(C: 38.1%, A: 24.4%, B: 10.1%)

====

ASSAYED_SYSTEM: Nitric oxide synthase, inducible (Mus musculus) (UniProt P29477)
TEST: Inhibition of iNOS in mouse macrophages assessed as reduction in LPS-induced nitric oxide production at 50 uM incubated for overnight by griess assay relative to control
RECORDED_ENDPOINT: inhibition (%)

Some solved cases for reference:
[[record]]
molecule = "Nc1ccc(-n2c(-c3ccc(Br)cc3)nc3ccccc32)cc1"
unit_tag = "%"
measured_number = 62.5

[[record]]
molecule = "Cc1ccc(-c2ncc(Cl)cc2-c2ccc(S(C)(=O)=O)cc2)cn1"
unit_tag = "%"
measured_number = 79.8

[[record]]
molecule = "Nc1ccc(-c2nc3ccccc3n2-c2ccc(N)cc2)cc1"
unit_tag = "%"
measured_number = 42.5


I = O=[N+]([O-])c1ccc(-n2c(-c3ccc(Cl)cc3)nc3ccccc32)cc1
II = CC(=O)Nc1ccc(-n2c(-c3ccc(Br)cc3)nc3ccccc32)cc1
III = O=[N+]([O-])c1ccc(-c2nc3ccccc3n2-c2ccc([N+](=O)[O-])cc2)cc1
IV = O=C(O)c1ccc(-c2nc3ccccc3n2-c2ccc([N+](=O)[O-])cc2)cc1
In: Arrange these molecules by their inhibition, starting with the largest number. Respond with the label ranking, as requested.
Out: II, I, IV, III

1 = O=[N+]([O-])c1ccc(-n2c(-c3ccc(Br)cc3)nc3ccccc32)cc1
2 = CC(=O)Nc1ccc(-n2c(-c3ccc(Cl)cc3)nc3ccccc32)cc1
In: Two entries are listed, 1 and 2 . Which one carries the higher inhibition? I would appreciate it if you answered with the label of your choice.
Out: 2
(2: 75.9%, 1: 46.5%)

====

ASSAYED_SYSTEM: Prostaglandin G/H synthase 1 (Bos taurus) (UniProt O62664)
TEST: Inhibition of bovine COX1 at 100 uM using arachidonic acid as substrate preincubated for 5 mins followed by substrate addition and measured after 5 mins by […]-based fluorescence assay relative to control
RECORDED_ENDPOINT: inhibition (%)

The cases that follow already have their inhibition on record.
[[record]]
structure_smiles_string = "CC(=O)Nc1ccc(-c2nc3ccccc3n2-c2ccc(NC(C)=O)cc2)cc1"
assayed_system = "Prostaglandin G/H synthase 1 (Bos taurus) (UniProt O62664)"
measured_number = 59.5

[[record]]
structure_smiles_string = "N#Cc1ccc(-c2nc3ccccc3n2-c2ccc([N+](=O)[O-])cc2)cc1"
assayed_system = "Prostaglandin G/H synthase 1 (Bos taurus) (UniProt O62664)"
measured_number = 29


P = Nc1ccc(-c2nc3ccccc3n2-c2ccc(N)cc2)cc1
Q = O=[N+]([O-])c1ccc(-n2c(-c3ccc(Br)cc3)nc3ccccc32)cc1
In: Field: entry with larger inhibition (options P / Q ). Record your answer as the label of the chosen record.
Out: P
(P: 29.7%, Q: 18.3%)
